Target: PI 4-kinase beta (Homo sapiens (Human))
Sequence (Q9UBF8 whole entry): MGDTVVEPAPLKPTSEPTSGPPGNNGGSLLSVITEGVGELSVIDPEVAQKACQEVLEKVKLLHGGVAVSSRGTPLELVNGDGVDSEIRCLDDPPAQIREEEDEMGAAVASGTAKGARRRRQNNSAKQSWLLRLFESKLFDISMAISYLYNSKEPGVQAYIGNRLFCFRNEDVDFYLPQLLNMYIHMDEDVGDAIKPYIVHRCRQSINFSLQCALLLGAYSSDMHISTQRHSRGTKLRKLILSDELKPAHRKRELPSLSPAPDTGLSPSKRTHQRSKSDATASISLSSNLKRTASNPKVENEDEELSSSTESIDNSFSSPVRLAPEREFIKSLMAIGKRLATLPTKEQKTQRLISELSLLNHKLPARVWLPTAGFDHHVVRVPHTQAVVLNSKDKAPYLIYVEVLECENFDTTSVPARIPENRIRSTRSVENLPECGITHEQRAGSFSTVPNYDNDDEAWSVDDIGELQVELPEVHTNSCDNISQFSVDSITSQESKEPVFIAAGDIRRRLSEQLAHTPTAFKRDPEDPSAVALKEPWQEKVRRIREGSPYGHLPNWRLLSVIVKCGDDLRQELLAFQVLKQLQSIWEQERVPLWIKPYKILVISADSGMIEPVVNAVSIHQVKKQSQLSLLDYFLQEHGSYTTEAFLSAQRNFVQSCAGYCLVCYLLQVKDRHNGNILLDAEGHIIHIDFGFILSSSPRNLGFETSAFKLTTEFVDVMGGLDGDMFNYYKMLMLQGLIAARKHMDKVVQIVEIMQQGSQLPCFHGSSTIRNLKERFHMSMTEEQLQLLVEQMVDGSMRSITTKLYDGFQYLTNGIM
Counter-ions that a name gives are not always drawn.
This listing pairs compounds with measured IC50.
Hi! Could you send only the number? It should be in µM, unit omitted.

Check out these entries, answers already filled in.
compound="Cc1cc(-c2cc(-c3cc(S(=O)(=O)NCC(C)(C)O)ccc3C)cnc2N)sn1 [Example 4.8, hydrochloride]" units_label=µM quantitative_readout=3.15
compound=Cc1nc(-c2cc(-c3cc(S(=O)(=O)NCCC(C)(C)O)ccc3C)cnc2N)cs1 units_label=µM quantitative_readout=7.5
compound=Cc1ncc(-c2cc(-c3cc(S(=O)(=O)NCC4(O)CC4)ccc3C)cnc2N)o1 units_label=µM quantitative_readout=4.5
compound=Cc1ccc(S(=O)(=O)N[C@H]2CC[C@H](O)CC2)cc1-c1cnc(N)c(-c2cnn(C)c2)c1 units_label=µM quantitative_readout=3.9
compound=Cc1cc(-c2cc(-c3cc(S(=O)(=O)NO[C@H]4C[C@H](O)C4)ccc3C)cnc2N)on1 units_label=µM quantitative_readout=0.86
compound="COCC1CCN(S(=O)(=O)c2ccc(C)c(-c3cnc(N)c(-c4cc(C)no4)c3)c2)CC1 [Example 19.18, trifluoroacetic acid salt]" units_label=µM quantitative_readout=3.8
compound="Cc1ccc(S(=O)(=O)N[C@H]2CC[C@H](O)CC2)cc1-c1cnc(N)c(-c2nc(C(F)F)no2)c1 [Example 70, hydrochloride]" units_label=µM quantitative_readout=8.2
compound=Cc1ncc(-c2cc(-c3cc(S(=O)(=O)NCC4COC4)ccc3C)cnc2N)s1 units_label=µM quantitative_readout=2.4
compound=Cc1ncc(-c2cc(-c3cc(S(=O)(=O)NCC4(O)COC4)ccc3C)cnc2N)s1 units_label=µM quantitative_readout=1.7

// lookup IC50 for Cc1cc(-c2cc(-c3cc(S(=O)(=O)N4CC(CO)C4)ccc3C)cnc2N)on1 3.4

====

Target: mTOR (Homo sapiens (Human), UniProt P42345)
Structures can show the parent of a compound that is named as a salt.
READOUT: IC50

molecule="Cc1noc(-c2cc(-c3cc(S(=O)(=O)NCC4(O)CCC4)ccc3C)cnc2N)n1 [Example 37.15]" result="> 10 µM"
molecule="Cc1noc(-c2cc(-c3cc(S(=O)(=O)NCC4(CO)CCC4)ccc3C)cnc2N)n1 [Example 37.26]" result="> 10 µM"
molecule="Cc1ccc(S(=O)(=O)NCCC(C)(C)O)cc1-c1cnc(N)c(-c2ccncc2)c1 [Example 18]" result="> 9.1 µM"

We now examine a further molecule.
Any idea what IC50 was measured for CCc1noc(-c2cc(-c3cc(S(=O)(=O)NCC(C)(C)O)ccc3C)cnc2N)n1 [Example 5.3, hydrochloride] ? > 10 µM

====

Target: mTOR (Homo sapiens (Human), UniProt P42345)
Settings: read-out: Assay G mTOR IC50
Structures can show the parent of a compound that is named as a salt.
READOUT: IC50

Name the reported IC50 value associated with the compound COC1(C)CN(S(=O)(=O)c2ccc(C)c(-c3cnc(N)c(-c4nc(C)no4)c3)c2)C1 [Example 37.2] > 10 µM

Record: Cc1noc(-c2cc(-c3cc(S(=O)(=O)NOCC(C)(C)O)ccc3C)cnc2N)n1 [Example 11, hydrochloride salt] > 10 µM

Another compound to check: Cc1cnc(-c2cc(-c3cc(S(=O)(=O)N[C@H]4CC[C@H](O)CC4)ccc3C)cnc2N)o1 [Example 5.2, hydrochloride] > 10 µM
